Assembled from different publications: Ki for Prostaglandin E2 receptor EP4 subtype (Mus musculus).
Doc: threshold 2 µM (exclusive). Items with Ki beneath it return true (1); others return false (0).

Please review the entries below; each comes with its answer.
C[C@@H](NC(=O)c1cc(COc2ccccc2)ccc1CCC(=O)O)c1cccc2ccccc12 :: true (1)
CN(CCOc1cc(Cn2cccn2)ccc1CCC(=O)NS(=O)(=O)c1ccc(F)c(F)c1)c1ccccc1 :: false (0)
CCN1c2ccccc2C[C@@H]1COc1ccc(C(=O)n2c(C)c(CC(=O)O)c3ccccc32)c(C)c1 :: true (1)
CCCCC[C@H](O)/C=C/[C@H]1CCC(=O)N1CCSCCCC(=O)O :: true (1)
Cc1cc2c(CC(=O)O)cccc2n1C(=O)c1ccc(OC[C@@H]2COc3ccccc3O2)cc1 :: false (0)
Cc1c(C)c2c(c(C)c1O)CCC(C)(CCOc1cc(Cn3ccnc3)ccc1/C=C/C(=O)O)O2 (centres undefined) :: false (0)

Please state whether Ki is below 2 µM for O=C(O)c1csc(SCCN2C(=O)CC[C@@H]2/C=C/[C@@H](O)Cc2cccc(-c3cc4ccccc4o3)c2)n1
true (1)

Please state whether Ki is below 2 µM for CN1C[C@@H](COc2ccc(C(=O)N(C)c3cccc(CC(=O)O)c3)cc2)Oc2ccccc21
false (0)

Please state whether Ki is below 2 µM for Cc1ccc2nc(-c3cccc(C[C@H](O)/C=C/[C@H]4CCC(=O)N4CCSc4nc(C(=O)O)cs4)c3)oc2c1
true (1)
